Target: ABL1-np (Homo sapiens)
Construct: purchased DiscoveRx (KINOMEscan service)
Sequence (P00519 whole entry): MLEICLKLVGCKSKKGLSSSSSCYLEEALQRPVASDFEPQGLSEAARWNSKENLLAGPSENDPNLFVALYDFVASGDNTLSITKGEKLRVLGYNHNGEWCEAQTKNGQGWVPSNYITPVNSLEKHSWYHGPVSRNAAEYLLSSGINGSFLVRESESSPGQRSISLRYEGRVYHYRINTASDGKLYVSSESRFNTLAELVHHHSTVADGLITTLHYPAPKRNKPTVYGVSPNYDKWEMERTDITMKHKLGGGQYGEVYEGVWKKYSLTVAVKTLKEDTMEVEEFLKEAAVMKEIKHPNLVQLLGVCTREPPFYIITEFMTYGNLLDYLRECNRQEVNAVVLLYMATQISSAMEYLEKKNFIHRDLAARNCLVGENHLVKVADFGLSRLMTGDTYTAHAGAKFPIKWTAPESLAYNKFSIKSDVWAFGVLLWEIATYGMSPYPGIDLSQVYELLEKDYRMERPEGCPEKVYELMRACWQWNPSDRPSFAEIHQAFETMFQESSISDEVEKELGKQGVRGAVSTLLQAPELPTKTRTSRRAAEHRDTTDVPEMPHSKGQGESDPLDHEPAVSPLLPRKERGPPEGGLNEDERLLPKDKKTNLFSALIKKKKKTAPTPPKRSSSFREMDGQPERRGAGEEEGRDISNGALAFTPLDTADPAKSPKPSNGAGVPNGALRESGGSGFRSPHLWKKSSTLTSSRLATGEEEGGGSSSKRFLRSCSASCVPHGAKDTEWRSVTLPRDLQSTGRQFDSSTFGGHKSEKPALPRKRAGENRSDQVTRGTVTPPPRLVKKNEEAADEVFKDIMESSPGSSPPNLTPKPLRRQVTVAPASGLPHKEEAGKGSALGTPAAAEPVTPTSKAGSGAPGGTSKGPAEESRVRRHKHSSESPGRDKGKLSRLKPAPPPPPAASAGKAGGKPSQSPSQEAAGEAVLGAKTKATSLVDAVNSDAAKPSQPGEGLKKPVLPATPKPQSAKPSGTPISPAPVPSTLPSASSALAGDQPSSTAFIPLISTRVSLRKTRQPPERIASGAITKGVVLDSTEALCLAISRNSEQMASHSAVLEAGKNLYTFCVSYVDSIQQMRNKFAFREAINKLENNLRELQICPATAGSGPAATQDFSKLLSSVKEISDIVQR
Experiment: KINOMEscan active-site competitive binding assay
Conditions: ABL1-np (not phosphorylated); slash = two separate measurements
propertyName: Kd (nM)
Value expressed in nM; do not type the unit.

{"columns": ["smilesString", "experimentalTarget", "valueMeasured"],
 "data": [
  ["NC(=O)c1cc(Oc2ccc(NC(=O)Nc3ccc(Cl)c(C(F)(F)F)c3)c(F)c2)cc[n+]1[O-]", "ABL1-np (Homo sapiens)", 20]
]}

// moving on: another record for Kd
Task: Give the measured Kd of `CNC(=O)c1cc(Oc2ccc(NC(=O)Nc3ccc(Cl)c(C(F)(F)F)c3)c(F)c2)cc[n+]1[O-]` .
Result: 23

Just for reference, paper PMC5119973 is where these values come from.
